target: Chitinase B (Serratia marcescens); assay: Inhibition of Serratia marcescens chitinase ChiB assessed as reduction in chitinolytic activity using 4MU-(GlcNAc)2 substrate by fluorescence based assay
pIC50: −log10 of the molar value.
Quantity kind: pIC50

Field: example entries. Status: answers known.
Item smiles	Quantity kind	Quantitative readout
CC(=O)N[C@H]1[C@H](O[C@H]2[C@@H](O)[C@@H](NC(C)=O)[C@H](O[C@H]3[C@H](O)[C@H]4N=C(N(C)C)O[C@H]4[C@@H]3CO)O[C@@H]2CO)O[C@H](CO)[C@@H](O)[C@H]1O	pIC50	7.05
CNC(=O)NC(=N)NCCN=[N+]=[N-]	pIC50	5.15

[1] C#CCO[C@@H]1[C@@H](C)[C@H](OC(=O)NCCCNC(=N)NC(=O)NC)[C@@H](C)C(=O)O[C@H](CC)[C@@](C)(O)[C@@H]2OC(C)(C)O[C@H]([C@@H]2C)[C@H](C)C[C@@]1(C)O
[2] CC[C@H]1OC(=O)[C@H](C)[C@@H](O)[C@H](C)[C@@H](OCc2cn(CCNC(=N)NC(=O)NC)nn2)[C@](C)(O)C[C@@H](C)[C@@H]2OC(C)(C)O[C@H]([C@H]2C)[C@]1(C)O
Incoming: Which value of pIC50 is numerically greater: that of 1 or that of 2 ? Pick one; state its label.
Outgoing: 1

----------
Target: UniProt:P11797
Sequence (P11797 whole entry): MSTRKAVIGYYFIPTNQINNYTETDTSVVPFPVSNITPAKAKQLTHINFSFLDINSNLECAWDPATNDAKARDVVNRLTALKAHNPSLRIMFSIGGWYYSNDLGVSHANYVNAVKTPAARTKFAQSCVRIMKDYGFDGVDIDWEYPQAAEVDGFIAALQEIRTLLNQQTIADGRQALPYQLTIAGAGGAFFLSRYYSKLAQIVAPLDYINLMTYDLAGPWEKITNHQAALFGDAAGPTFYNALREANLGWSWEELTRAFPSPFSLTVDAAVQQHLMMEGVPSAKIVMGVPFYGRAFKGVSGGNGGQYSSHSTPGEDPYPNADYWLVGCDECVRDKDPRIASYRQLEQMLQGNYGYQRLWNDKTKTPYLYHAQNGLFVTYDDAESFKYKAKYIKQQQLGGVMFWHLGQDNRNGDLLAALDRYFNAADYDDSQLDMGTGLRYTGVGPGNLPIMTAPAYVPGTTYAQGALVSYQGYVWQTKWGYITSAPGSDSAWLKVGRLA
Assay: Inhibition of Serratia marcescens chitinase ChiB
Quantity kind: IC50 (nM)
API: value field is a number in nM; no unit string.

Incoming: Supply measured IC50 of "CC(=O)NC(=N)NCCC[C@@H]1NC(=O)[C@H](CCCC(=O)O)NC(=O)[C@H](Cc2c[nH]cn2)N2C(=O)[C@H](C[C@H]2O)NC(=O)[C@H]2CCCN2C1=O" in your reply.
Outgoing: 33

----------
target: Chitinase B (Serratia marcescens, UniProt P11797); experiment: Inhibition of Serratia marcescens chitinase ChiB assessed as reduction in chitinolytic activity using 4MU-(GlcNAc)2 substrate by fluorescence based assay
pIC50: −log10 of the molar value.
Quantity kind: pIC50

[1] CC[C@H]1OC(=O)[C@H](C)[C@@H](O)[C@H](C)[C@@H](O)[C@](C)(O)C[C@@H](C)/C(=N\OCc2cn(CCNC(=N)NC(=O)NC)nn2)[C@H](C)[C@@H](O)[C@]1(C)O
[2] C#CCO[C@@H]1[C@@H](C)[C@H](OC(=O)NCCCCNC(=N)NC(=O)NC)[C@@H](C)C(=O)O[C@H](CC)[C@@](C)(O)[C@@H]2OC(C)(C)O[C@H]([C@@H]2C)[C@H](C)C[C@@]1(C)O
[3] CC[C@H]1OC(=O)[C@H](C)[C@@H](OCc2cn(CCNC(=N)NC(=O)NC)nn2)[C@H](C)[C@@H](O)[C@](C)(O)C[C@@H](C)[C@@H]2OC(C)(C)O[C@H]([C@H]2C)[C@]1(C)O
Incoming: Parameters: sort_field (pIC50), sort_dir (desc). Put the labels in the requested order and write them down.
Outgoing: 2, 3, 1
(2: 6.66, 3: 5.48, 1: 4.62)
